- System tested: VLA4 (Homo sapiens, UniProt P05556+P13612)
- Construct: endogenous in cells
- Sequence (P13612 34-1032): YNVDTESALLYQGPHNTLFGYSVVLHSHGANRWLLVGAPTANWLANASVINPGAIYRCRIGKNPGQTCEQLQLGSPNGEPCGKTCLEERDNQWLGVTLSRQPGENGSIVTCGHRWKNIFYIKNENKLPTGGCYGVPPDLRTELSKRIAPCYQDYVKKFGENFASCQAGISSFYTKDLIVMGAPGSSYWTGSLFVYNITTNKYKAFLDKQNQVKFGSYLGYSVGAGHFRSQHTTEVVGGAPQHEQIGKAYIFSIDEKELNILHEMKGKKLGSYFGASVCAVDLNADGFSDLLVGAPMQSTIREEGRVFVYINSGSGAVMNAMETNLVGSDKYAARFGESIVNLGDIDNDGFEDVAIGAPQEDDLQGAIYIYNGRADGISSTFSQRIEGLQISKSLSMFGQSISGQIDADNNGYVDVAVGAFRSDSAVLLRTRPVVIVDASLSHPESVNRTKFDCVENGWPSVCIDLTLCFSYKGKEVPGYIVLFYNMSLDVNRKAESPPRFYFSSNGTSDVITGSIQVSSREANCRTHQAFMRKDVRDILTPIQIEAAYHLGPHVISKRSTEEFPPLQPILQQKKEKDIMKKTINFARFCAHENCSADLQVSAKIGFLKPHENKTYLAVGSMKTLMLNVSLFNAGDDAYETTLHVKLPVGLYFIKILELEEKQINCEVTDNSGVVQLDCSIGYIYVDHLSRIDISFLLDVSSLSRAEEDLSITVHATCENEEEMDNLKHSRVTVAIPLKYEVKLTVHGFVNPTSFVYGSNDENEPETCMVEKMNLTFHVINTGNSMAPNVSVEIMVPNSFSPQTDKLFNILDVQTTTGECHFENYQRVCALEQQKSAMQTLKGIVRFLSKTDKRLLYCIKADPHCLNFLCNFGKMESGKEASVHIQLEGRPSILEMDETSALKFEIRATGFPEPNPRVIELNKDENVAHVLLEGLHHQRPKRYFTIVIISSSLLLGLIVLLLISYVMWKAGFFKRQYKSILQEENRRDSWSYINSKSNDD
- Sequence (P05556 21-798): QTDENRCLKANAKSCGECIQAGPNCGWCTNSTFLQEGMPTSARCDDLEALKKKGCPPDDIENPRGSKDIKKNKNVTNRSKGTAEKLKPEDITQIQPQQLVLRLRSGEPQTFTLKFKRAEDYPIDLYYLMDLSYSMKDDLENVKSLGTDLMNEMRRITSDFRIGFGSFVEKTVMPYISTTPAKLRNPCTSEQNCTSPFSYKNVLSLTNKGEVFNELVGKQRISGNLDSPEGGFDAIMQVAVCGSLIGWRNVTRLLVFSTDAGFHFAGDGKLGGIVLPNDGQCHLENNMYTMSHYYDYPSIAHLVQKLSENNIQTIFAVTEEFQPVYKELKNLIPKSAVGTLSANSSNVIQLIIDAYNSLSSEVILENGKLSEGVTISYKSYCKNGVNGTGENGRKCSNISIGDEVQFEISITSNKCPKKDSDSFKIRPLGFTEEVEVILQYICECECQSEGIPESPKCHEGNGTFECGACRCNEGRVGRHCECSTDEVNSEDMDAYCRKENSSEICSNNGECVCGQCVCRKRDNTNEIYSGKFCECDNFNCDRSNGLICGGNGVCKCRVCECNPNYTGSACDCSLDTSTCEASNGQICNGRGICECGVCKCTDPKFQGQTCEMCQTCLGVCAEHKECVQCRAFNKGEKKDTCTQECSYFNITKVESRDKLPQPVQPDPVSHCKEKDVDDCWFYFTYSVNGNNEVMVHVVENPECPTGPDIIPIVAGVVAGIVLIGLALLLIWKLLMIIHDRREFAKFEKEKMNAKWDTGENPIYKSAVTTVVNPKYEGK
- Assay procedure: Inhibition of VLA4-dependent adhesion to BSA-CS1 (fluorescently labelled Ramos cells)
- Assay setup: binding of BCECF-labelled Ramos cells to CS1 peptide-coated wells, 2 mM MnCl2, 30 minutes at room temperature
pIC50: −log10 of the molar value.
Result type: pIC50

[
  {
    "Molecule": "Cc1ccccc1NC(=O)Nc1ccc(CC(=O)NC(CC(C)C)C(=O)NC(C)CC(=O)O)cc1 (stereo not shown) [BIO-1536]",
    "System tested": "VLA4 (Homo sapiens, UniProt P05556+P13612)",
    "Result type": "pIC50",
    "Result value": "> 7.30"
  },
  {
    "Molecule": "CC(C)CC(NC(=O)Cc1ccc(Nc2nc3ccccc3o2)cc1)C(=O)NC(CC(=O)O)c1ccc2c(c1)OCO2 (stereo not shown) [BIO-1396]",
    "System tested": "VLA4 (Homo sapiens, UniProt P05556+P13612)",
    "Result type": "pIC50",
    "Result value": "5.00 to 7.30"
  },
  {
    "Molecule": "O=C(O)CC(NC(=O)C(CSCc1ccccc1)NC(=O)Cc1ccc(NC(=O)Nc2ccccc2)cc1)c1ccccc1 (stereo not shown) [BIO-1136]",
    "System tested": "VLA4 (Homo sapiens, UniProt P05556+P13612)",
    "Result type": "pIC50",
    "Result value": "5.00 to 7.30"
  },
  {
    "Molecule": "COc1ccc(C(CC(=O)O)NC(=O)C(CCSC)NC(=O)Cc2ccc(NC(=O)Nc3ccccn3)cc2)cc1OC (stereo not shown) [BIO-1347]",
    "System tested": "VLA4 (Homo sapiens, UniProt P05556+P13612)",
    "Result type": "pIC50",
    "Result value": "> 7.30"
  },
  {
    "Molecule": "COc1cccc(C(CC(=O)O)NC(=O)C(CC(C)C)NC(=O)Cc2ccccc2)c1 (stereo not shown) [BIO-1160]",
    "System tested": "VLA4 (Homo sapiens, UniProt P05556+P13612)",
    "Result type": "pIC50",
    "Result value": "5.00 to 7.30"
  },
  {
    "Molecule": "COC(=O)c1ccc(C(CC(=O)O)NC(=O)C(CC(C)C)NC(=O)Cc2ccc(NC(=O)Nc3ccccc3)cc2)cc1 (stereo not shown) [BIO-1388]",
    "System tested": "VLA4 (Homo sapiens, UniProt P05556+P13612)",
    "Result type": "pIC50",
    "Result value": "> 7.30"
  },
  {
    "Molecule": "COC(=O)NCCCCC(NC(=O)Cc1ccc(NC(=O)Nc2ccccc2C)cc1)C(=O)NC(CC(=O)O)c1ccc2c(c1)OCO2 (stereo not shown) [BIO-1272]",
    "System tested": "VLA4 (Homo sapiens, UniProt P05556+P13612)",
    "Result type": "pIC50",
    "Result value": "> 7.30"
  }
]

###

- System tested: VLA4 (Homo sapiens, UniProt P05556+P13612)
- Construct: endogenous in cells
- Assay procedure: Inhibition of VLA4-dependent adhesion to BSA-CS1 (fluorescently labelled Ramos cells)
- Assay setup: binding of BCECF-labelled Ramos cells to CS1 peptide-coated wells, 2 mM MnCl2, 30 minutes at room temperature
Entries annotated with measured IC50
Result type: IC50

[
  {
    "Compound": "Cc1ccccc1NC(=O)Nc1ccc(CC(=O)NC(CC(C)C)C(=O)NC(CC(=O)O)CN2CCOCC2)cc1 (stereo not shown)",
    "Result value": "0.05 to 10 µM"
  },
  {
    "Compound": "Cc1ccccc1NC(=O)Nc1ccc(CC(=O)NC(CC(C)C)C(=O)NCCC(=O)O)cc1 (stereo not shown)",
    "Result value": "0.05 to 10 µM"
  },
  {
    "Compound": "C=CCC(CC(=O)O)NC(=O)C(CC(C)C)NC(=O)Cc1ccc(NC(=O)Nc2ccccc2C)cc1 (stereo not shown)",
    "Result value": "< 0.05 µM"
  },
  {
    "Compound": "Cc1ccccc1NC(=O)Nc1ccc(CC(=O)NC(CC(C)C)C(=O)NC(CCc2ccccc2)CC(=O)O)cc1 (stereo not shown)",
    "Result value": "< 0.05 µM"
  }
]

###

Entries annotated with measured IC50
- System tested: VLA4 (Homo sapiens, UniProt P05556+P13612)
- Construct: endogenous in cells
- Assay procedure: Inhibition of VLA4-dependent adhesion to BSA-CS1 (fluorescently labelled Ramos cells)
- Assay setup: binding of BCECF-labelled Ramos cells to CS1 peptide-coated wells, 2 mM MnCl2, 30 minutes at room temperature
Result type: IC50

[
  {
    "Molecule": "COC(=O)NCCCCC(NC(=O)Cc1ccc(NC(=O)Nc2ncccc2C)cc1)C(=O)NC(CC(=O)O)c1ccc(OC)c(OC)c1 (stereo not shown) [BIO-1311]",
    "Result type": "IC50",
    "Result value": "50 to 10000 nM"
  },
  {
    "Molecule": "COc1ccc(C(CC(=O)O)NC(=O)C(CC(C)C)NC(=O)Cc2ccc(NC(=O)Nc3ccccc3F)cc2)cc1OC (stereo not shown) [BIO-1525]",
    "Result type": "IC50",
    "Result value": "50 to 10000 nM"
  },
  {
    "Molecule": "CC(C)CC(NC(=O)CC(c1ccccc1)c1ccccc1)C(=O)NC(CC(=O)O)c1ccccc1 (stereo not shown) [BIO-1099]",
    "Result type": "IC50",
    "Result value": "> 10000 nM"
  },
  {
    "Molecule": "COC(=O)c1ccc(C(CC(=O)O)NC(=O)C(CCSC)NC(=O)Cc2ccc(NC(=O)Nc3ccccc3C)cc2)cc1 (stereo not shown) [BIO-1361]",
    "Result type": "IC50",
    "Result value": "< 50 nM"
  },
  {
    "Molecule": "Cc1ccccc1NC(=O)Nc1ccc(CC(=O)NC(CC(C)C)C(=O)NC(CC(=O)O)c2ccccc2)cc1 (stereo not shown) [BIO-1197]",
    "Result type": "IC50",
    "Result value": "< 50 nM"
  },
  {
    "Molecule": "Cc1ccccc1NC(=O)Nc1ccc(CC(=O)NC(CSCCN(C)C)C(=O)NC(CC(=O)O)c2ccc3c(c2)OCO3)cc1 (stereo not shown) [BIO-1345]",
    "Result type": "IC50",
    "Result value": "< 50 nM"
  },
  {
    "Molecule": "CC(C)CC(NC(=O)Cc1ccc(NC(=O)Nc2ccccc2)cc1)C(=O)NC(CC(=O)O)c1ccc2c(c1)OCO2 (stereo not shown) [BIO-1128]",
    "Result type": "IC50",
    "Result value": "50 to 10000 nM"
  }
]
